Target or test system: UniProt:P09668
Assay procedure: Non-competitive inhibition of human liver cathepsin H assessed as inhibitory constant for enzyme-substrate-inhibitor complex using R-AMC as substrate in presence of pH 6 phosphate buffer by fluorescence assay
pKi: −log10 of the molar value.
Endpoint name: pKi

cpd_smiles=Cc1ccc2c([N+](=O)[O-])ccc(O)c2n1 endpoint_name=pKi measured_result=4.05
cpd_smiles=N#CC1(NC(=O)c2cc([N+](=O)[O-])c3cccnc3c2O)CC1 endpoint_name=pKi measured_result=3.48

====

Target or test system: Pro-cathepsin H (Homo sapiens)
Sequence (P09668 116-335 limits assumed, other chains not shown): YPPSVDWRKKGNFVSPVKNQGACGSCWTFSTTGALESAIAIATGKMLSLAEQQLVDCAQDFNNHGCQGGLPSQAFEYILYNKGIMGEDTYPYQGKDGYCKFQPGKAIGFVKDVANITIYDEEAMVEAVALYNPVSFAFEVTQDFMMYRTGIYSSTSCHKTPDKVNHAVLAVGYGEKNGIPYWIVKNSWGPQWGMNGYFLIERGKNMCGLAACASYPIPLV
Assay procedure: Uncompetitive inhibition of human liver cathepsin H assessed as inhibitory constant for enzyme-substrate-inhibitor complex using R-AMC as substrate in presence of pH 6 phosphate buffer by fluorescence assay
Endpoint name: Ki (µM)

cpd_smiles=N#CCNC(=O)c1cc([N+](=O)[O-])c2cccnc2c1O target_or_test_system="Pro-cathepsin H (Homo sapiens)" measured_result=462

====

Target or test system: Cathepsin B (Homo sapiens)
Assay procedure: Inhibition of cathepsin B in human MCF-10A neoT cells assessed as proteolysis of extracellular membrane by measuring decrease in extracellular degradation of DQ-collagen 4 at 5 uM incubated for 6 hrs measured for 2 hrs by fluorescence based spectrofluorimetric assay relative to control
Assay type: cell-based
Active and inactive are the calls of the source. No cut-off for these calls is given here.
Endpoint name: inhibition

cpd_smiles=N#CCNC(=O)c1cc([N+](=O)[O-])c2cccnc2c1O measured_result=Active
cpd_smiles=N#CC1(NC(=O)c2cc([N+](=O)[O-])c3cccnc3c2O)CC1 measured_result=Active
cpd_smiles=N#CCN(Cc1ccccc1)C(=O)c1cc([N+](=O)[O-])c2cccnc2c1O measured_result=60%
cpd_smiles=N#CCN(Cc1ccccc1)C(=O)c1ccc2c([N+](=O)[O-])cc([N+](=O)[O-])c(O)c2n1 measured_result=Active

====

Target or test system: Cathepsin B (Homo sapiens)
Assay procedure: Non-competitive inhibition of recombinant human cathepsin B endopeptidase activity assessed as inhibitory constant for enzyme-inhibitor complex using Z-Arg-Arg-AMC as substrate in presence of pH 6 phosphate buffer by fluorescence assay
The following molecules are shown together with reported Ki values.
Endpoint name: Ki (µM)

cpd_smiles=COCCCOc1cc(-c2ccc([N+](=O)[O-])c3cccnc23)ccc1OC endpoint_name=Ki measured_result=323
cpd_smiles=O=[N+]([O-])c1ccc(O)c(CN2CCOCC2)c1 endpoint_name=Ki measured_result=212
cpd_smiles=O=C(O)c1ccc2c([N+](=O)[O-])ccc(O)c2n1 endpoint_name=Ki measured_result=139
cpd_smiles=Cn1cccc1-c1ccc([N+](=O)[O-])c2cccnc12 endpoint_name=Ki measured_result=333
cpd_smiles=N#CCNC(=O)c1ccc2c([N+](=O)[O-])cc([N+](=O)[O-])c(O)c2n1 endpoint_name=Ki measured_result=160
cpd_smiles=Nc1ccc2c([N+](=O)[O-])ccc(O)c2n1 endpoint_name=Ki measured_result=202

====

Target or test system: Cathepsin B (Homo sapiens, UniProt P07858)
Assay procedure: Non-competitive inhibition of recombinant human cathepsin B endopeptidase activity assessed as inhibitory constant for enzyme-substrate-inhibitor complex using Z-Arg-Arg-AMC as substrate in presence of pH 6 phosphate buffer by fluorescence assay
Endpoint name: Ki (µM)

cpd_smiles=O=[N+]([O-])c1ccc(O)c(CN2CCOCC2)c1 measured_result=212
cpd_smiles=CN(CC#N)C(=O)c1cc([N+](=O)[O-])c2cccnc2c1O measured_result=185
cpd_smiles=Cn1cccc1-c1ccc([N+](=O)[O-])c2cccnc12 measured_result=333
cpd_smiles=N#CCNC(=O)c1cc([N+](=O)[O-])ccc1O measured_result=271
cpd_smiles=N#CCN(Cc1ccccc1)C(=O)c1cc([N+](=O)[O-])ccc1O measured_result=342
cpd_smiles=N#CCNC(=O)c1ccc2c([N+](=O)[O-])cc([N+](=O)[O-])c(O)c2n1 measured_result=160
cpd_smiles=O=C(O)c1ccc2c([N+](=O)[O-])ccc(O)c2n1 measured_result=139
cpd_smiles=O=C(c1cc([N+](=O)[O-])c2cccnc2c1O)N1CCOCC1 measured_result=136
cpd_smiles=Nc1ccc2c([N+](=O)[O-])ccc(O)c2n1 measured_result=202
cpd_smiles=O=C(c1cc([N+](=O)[O-])ccc1O)N1CCOCC1 measured_result=237
cpd_smiles=N#CC1(NC(=O)c2cc([N+](=O)[O-])ccc2O)CC1 measured_result=128
cpd_smiles=COCCCOc1cc(-c2ccc([N+](=O)[O-])c3cccnc23)ccc1OC measured_result=323

====

Target or test system: Cathepsin B (Homo sapiens)
Assay procedure: Mixed inhibition of recombinant human cathepsin B endopeptidase activity assessed as inhibitory constant for enzyme-inhibitor complex using Z-Arg-Arg-AMC as substrate in presence of pH 6 phosphate buffer by fluorescence assay
// Ki lookup, one value per entry
Endpoint name: Ki (µM)

cpd_smiles=N#CCN(Cc1ccccc1)C(=O)c1cc([N+](=O)[O-])c2cccnc2c1O endpoint_name=Ki measured_result=182
cpd_smiles=O=C(c1cc([N+](=O)[O-])c2cccnc2c1O)N1CCCCC1 endpoint_name=Ki measured_result=311
cpd_smiles=CN(CC#N)C(=O)c1ccc2c([N+](=O)[O-])ccc(O)c2n1 endpoint_name=Ki measured_result=102
cpd_smiles=N#CC1(NC(=O)c2ccc3c([N+](=O)[O-])ccc(O)c3n2)CC1 endpoint_name=Ki measured_result=157
cpd_smiles=Cc1ccc2c([N+](=O)[O-])ccc(O)c2n1 endpoint_name=Ki measured_result=181
cpd_smiles=N#CCNC(=O)c1ccc2c([N+](=O)[O-])ccc(O)c2n1 endpoint_name=Ki measured_result=180
cpd_smiles=CN(CC#N)C(=O)c1ccc2c([N+](=O)[O-])cc([N+](=O)[O-])c(O)c2n1 endpoint_name=Ki measured_result=341
cpd_smiles=N#Cc1ccc2c([N+](=O)[O-])ccc(O)c2n1 endpoint_name=Ki measured_result=142
cpd_smiles=CC1CCN(C(=O)c2cc([N+](=O)[O-])c3cccnc3c2O)CC1 endpoint_name=Ki measured_result=143
cpd_smiles=COCCN(CC1CCN(Cc2nc3ccccc3s2)CC1)C(=O)c1cc([N+](=O)[O-])c2cccnc2c1O endpoint_name=Ki measured_result=200

====

Target or test system: UniProt P07858
Assay procedure: Uncompetitive inhibition of recombinant human cathepsin B exopeptidase activity assessed as inhibitory constant for enzyme-substrate-inhibitor complex using Abz-Gly-Ile-Val-Arg-Ala-Lys(Dnp)-OH as substrate in presence of pH 5 acetate buffer by fluorescence assay
pKi: −log10 of the molar value.
Attribute: pKi
Endpoint name: pKi

cpd_smiles=CC(=O)c1ccc(-c2cc(-c3ccc([N+](=O)[O-])c4cccnc34)c(-c3ccc(C(C)=O)cc3)o2)cc1 endpoint_name=pKi measured_result=4.89
cpd_smiles=O=C(NCC1CCN(c2nc3ccccc3o2)CC1)c1cc([N+](=O)[O-])c2cccnc2c1O endpoint_name=pKi measured_result=4.89
cpd_smiles=CC(=O)c1ccc(-c2occc2-c2ccc([N+](=O)[O-])c3cccnc23)cc1 endpoint_name=pKi measured_result=4.96

====

Target or test system: Cathepsin B (Homo sapiens, UniProt P07858)
Assay procedure: Inhibition of recombinant human cathepsin B exopeptidase activity assessed as inhibitory constant for enzyme-substrate-inhibitor complex using Abz-Gly-Ile-Val-Arg-Ala-Lys(Dnp)-OH as substrate in presence of pH 5 acetate buffer by fluorescence assay
Endpoint name: Ki

cpd_smiles=O=[N+]([O-])c1ccc(-c2c(-c3ccc([N+](=O)[O-])c4cccnc34)oc3ccccc23)cc1 target_or_test_system="Cathepsin B (Homo sapiens, UniProt P07858)" measured_result="Not Active"
cpd_smiles=O=[N+]([O-])c1ccc(-c2cc3ccccc3s2)c2ncccc12 target_or_test_system="Cathepsin B (Homo sapiens, UniProt P07858)" measured_result="Not Active"
cpd_smiles=O=[N+]([O-])c1ccc(-c2occc2-c2ccc([N+](=O)[O-])c3cccnc23)cc1 target_or_test_system="Cathepsin B (Homo sapiens, UniProt P07858)" measured_result="Not Active"
cpd_smiles=CC1CCN(Cc2cc([N+](=O)[O-])ccc2O)CC1 target_or_test_system="Cathepsin B (Homo sapiens, UniProt P07858)" measured_result="Not Active"
cpd_smiles=COCCN(CC1CCN(Cc2nc3ccccc3o2)CC1)C(=O)c1cc([N+](=O)[O-])c2cccnc2c1O target_or_test_system="Cathepsin B (Homo sapiens, UniProt P07858)" measured_result="Not Active"
cpd_smiles=O=[N+]([O-])c1ccc(O)c(CN2CCCCC2)c1 target_or_test_system="Cathepsin B (Homo sapiens, UniProt P07858)" measured_result="Not Active"
cpd_smiles=O=C(O)c1ccc2c([N+](=O)[O-])cc([N+](=O)[O-])c(O)c2n1 target_or_test_system="Cathepsin B (Homo sapiens, UniProt P07858)" measured_result="Not Active"
cpd_smiles=O=[N+]([O-])c1ccc(Br)c2ncccc12 target_or_test_system="Cathepsin B (Homo sapiens, UniProt P07858)" measured_result="Not Active"
cpd_smiles=O=[N+]([O-])c1ccc(-c2ccsc2)c2ncccc12 target_or_test_system="Cathepsin B (Homo sapiens, UniProt P07858)" measured_result="Not Active"
cpd_smiles=N#CC1(NCc2cc([N+](=O)[O-])ccc2O)CC1 target_or_test_system="Cathepsin B (Homo sapiens, UniProt P07858)" measured_result="Not Active"
cpd_smiles=CN(CC#N)Cc1ccc2c([N+](=O)[O-])ccc(O)c2n1 target_or_test_system="Cathepsin B (Homo sapiens, UniProt P07858)" measured_result="Not Active"
cpd_smiles=O=[N+]([O-])c1ccc(-c2ccoc2)c2ncccc12 target_or_test_system="Cathepsin B (Homo sapiens, UniProt P07858)" measured_result="Not Active"
cpd_smiles=N#Cc1ccc([N+](=O)[O-])c2cccnc12 target_or_test_system="Cathepsin B (Homo sapiens, UniProt P07858)" measured_result="Not Active"
cpd_smiles=O=C(NCC1CCN(C2Cc3ccccc3C2)CC1)c1cc([N+](=O)[O-])c2cccnc2c1O target_or_test_system="Cathepsin B (Homo sapiens, UniProt P07858)" measured_result="Not Active"
cpd_smiles=CC1CCN(C(=O)c2cc([N+](=O)[O-])ccc2O)CC1 target_or_test_system="Cathepsin B (Homo sapiens, UniProt P07858)" measured_result="Not Active"
